The reported numbers originate from ChEMBL document CHEMBL3785084.

tested on: CCRF-CEM; assay: Cytotoxicity against human CCRF-CEM cells assessed as cell growth at 10^-5 M after 48 hrs by sulforhodamine B assay; type: functional; details: read-out: Activity
READOUT TYPE: growth at 10 µM (%)
Supply the numeric figure in %, leaving out any unit text.

| COMPOUND | TARGET OR SYSTEM | READOUT TYPE | OBSERVED VALUE |
| --- | --- | --- | --- |
| O=C1NC(=O)C(=Cc2cn(CC(O)Cn3cc(C=C4C(=O)NC(=O)NC4=O)c4ccccc43)c3ccccc23)C(=O)N1 | CCRF-CEM | growth at 10 µM | 105 |
| COc1cc(/C=C2\C(=O)Nc3ccccc32)cc(OC)c1O | CCRF-CEM | growth at 10 µM | 26.7 |
| CC1=NN(c2cccc(Cl)c2)C(=O)/C1=C\c1cn(CC(O)Cn2cc(/C=C3\C(=O)N(c4cccc(Cl)c4)N=C3C)c3ccccc32)c2ccccc12 | CCRF-CEM | growth at 10 µM | 106 |
| O=C1Nc2ccccc2/C1=C/c1cn(CC(O)Cn2cc(/C=C3\C(=O)Nc4ccccc43)c3ccccc32)c2ccccc12 (stereo not given) | CCRF-CEM | growth at 10 µM | -30.6 |

Now look at this entry.
Request: What value of growth at 10 µM has been reported for the following compound? CN1C(=O)C(=Cc2cn(CC(O)Cn3cc(C=C4C(=O)N(C)C(=O)N(C)C4=O)c4ccccc43)c3ccccc23)C(=O)N(C)C1=O
Result: 98.3

###

assay: Cytotoxicity against human SF268 cells assessed as cell growth at 10^-5 M after 48 hrs by sulforhodamine B assay; format: functional; conditions: SF-268, 48 h, read-out: Activity
READOUT TYPE: growth at 10 µM

Examples with their reported growth at 10 µM follow.
| COMPOUND | OBSERVED VALUE |
| --- | --- |
| CN1C(=O)C(=Cc2cn(CC(O)Cn3cc(C=C4C(=O)N(C)C(=O)N(C)C4=O)c4ccccc43)c3ccccc23)C(=O)N(C)C1=O | 92% |
| COc1cc(/C=C2\C(=O)Nc3ccccc32)cc(OC)c1O | 78.3% |
| O=C1NC(=O)C(=Cc2cn(CC(O)Cn3cc(C=C4C(=O)NC(=O)NC4=O)c4ccccc43)c3ccccc23)C(=O)N1 | 93.4% |
| CC1=NN(c2cccc(Cl)c2)C(=O)/C1=C\c1cn(CC(O)Cn2cc(/C=C3\C(=O)N(c4cccc(Cl)c4)N=C3C)c3ccccc32)c2ccccc12 | 104% |

Next:
Request: Please look up its growth at 10 µM: O=C1Nc2ccccc2/C1=C/c1cn(CC(O)Cn2cc(/C=C3\C(=O)Nc4ccccc43)c3ccccc32)c2ccccc12 (stereo not given)
Result: -62%

###

test system: NCI-H522; test: Cytotoxicity against human NCI-H522 cells assessed as cell growth at 10^-5 M after 48 hrs by sulforhodamine B assay; assay type: functional; details: NCI-H522, 48 h, read-out: Activity
READOUT TYPE: growth at 10 µM (%)
Return type: number; implicit unit %.

Past entries and their recorded results:
| COMPOUND | TARGET OR SYSTEM | UNIT ANNOTATION | OBSERVED VALUE |
| --- | --- | --- | --- |
| COc1cc(/C=C2\C(=O)Nc3ccccc32)cc(OC)c1O | NCI-H522 | % | 8.78 |
| CC1=NN(c2cccc(Cl)c2)C(=O)/C1=C\c1cn(CC(O)Cn2cc(/C=C3\C(=O)N(c4cccc(Cl)c4)N=C3C)c3ccccc32)c2ccccc12 | NCI-H522 | % | 97.6 |
| CN1C(=O)C(=Cc2cn(CC(O)Cn3cc(C=C4C(=O)N(C)C(=O)N(C)C4=O)c4ccccc43)c3ccccc23)C(=O)N(C)C1=O | NCI-H522 | % | 108 |
| O=C1Nc2ccccc2/C1=C/c1cn(CC(O)Cn2cc(/C=C3\C(=O)Nc4ccccc43)c3ccccc32)c2ccccc12 (stereo not given) | NCI-H522 | % | -17.4 |

Attention now shifts to the item below.
Request: Which growth at 10 µM is reported for this compound? O=C1NC(=O)C(=Cc2cn(CC(O)Cn3cc(C=C4C(=O)NC(=O)NC4=O)c4ccccc43)c3ccccc23)C(=O)N1
Result: 97.1

###

test: Cytotoxicity against human HOP92 cells assessed as cell growth at 10^-5 M after 48 hrs by sulforhodamine B assay; format: functional; details: HOP-92, 48 h, read-out: Activity
READOUT TYPE: growth at 10 µM (%)
Please reply with the bare figure in % and do not write the unit itself.

Example results:
| COMPOUND | UNIT ANNOTATION | growth at 10 µM |
| --- | --- | --- |
| CN1C(=O)C(=Cc2cn(CC(O)Cn3cc(C=C4C(=O)N(C)C(=O)N(C)C4=O)c4ccccc43)c3ccccc23)C(=O)N(C)C1=O | % | 80.4 |
| CC1=NN(c2cccc(Cl)c2)C(=O)/C1=C\c1cn(CC(O)Cn2cc(/C=C3\C(=O)N(c4cccc(Cl)c4)N=C3C)c3ccccc32)c2ccccc12 | % | 122 |
| O=C1NC(=O)C(=Cc2cn(CC(O)Cn3cc(C=C4C(=O)NC(=O)NC4=O)c4ccccc43)c3ccccc23)C(=O)N1 | % | 101 |

Moving on to the next compound.
Request: Name the recorded growth at 10 µM for O=C1Nc2ccccc2/C1=C/c1cn(CC(O)Cn2cc(/C=C3\C(=O)Nc4ccccc43)c3ccccc32)c2ccccc12 (centres undefined) .
Result: -73.9

###

This listing pairs molecules with measured growth at 10 µM.
test: Cytotoxicity against human RPMI8226 cells assessed as cell growth at 10^-5 M after 48 hrs by sulforhodamine B assay; format: functional; details: RPMI-8226, 48 h, read-out: Activity
State the answer as a number, implicitly in %.

| MOLECULE | UNIT ANNOTATION | OBSERVED VALUE |
| --- | --- | --- |
| O=C1NC(=O)C(=Cc2cn(CC(O)Cn3cc(C=C4C(=O)NC(=O)NC4=O)c4ccccc43)c3ccccc23)C(=O)N1 | % | 98.5 |
| O=C1Nc2ccccc2/C1=C/c1cn(CC(O)Cn2cc(/C=C3\C(=O)Nc4ccccc43)c3ccccc32)c2ccccc12 (stereo not given) | % | -41.7 |
| CC1=NN(c2cccc(Cl)c2)C(=O)/C1=C\c1cn(CC(O)Cn2cc(/C=C3\C(=O)N(c4cccc(Cl)c4)N=C3C)c3ccccc32)c2ccccc12 | % | 109 |
| COc1cc(/C=C2\C(=O)Nc3ccccc32)cc(OC)c1O | % | 46.6 |

Request: Item CN1C(=O)C(=Cc2cn(CC(O)Cn3cc(C=C4C(=O)N(C)C(=O)N(C)C4=O)c4ccccc43)c3ccccc23)C(=O)N(C)C1=O has what recorded growth at 10 µM?
Result: 86.2

###

test: Cytotoxicity against human Caki1 cells assessed as cell growth at 10^-5 M after 48 hrs by sulforhodamine B assay; assay type: functional; settings: CAKI-1, 48 h, read-out: Activity
Catalogue of molecules with associated growth at 10 µM
Write the quantity with the unit trailing the number.

| MOLECULE | OBSERVED VALUE |
| --- | --- |
| O=C1Nc2ccccc2/C1=C/c1cn(CC(O)Cn2cc(/C=C3\C(=O)Nc4ccccc43)c3ccccc32)c2ccccc12 (stereo not given) | 9.83% |
| CN1C(=O)C(=Cc2cn(CC(O)Cn3cc(C=C4C(=O)N(C)C(=O)N(C)C4=O)c4ccccc43)c3ccccc23)C(=O)N(C)C1=O | 90.8% |
| O=C1NC(=O)C(=Cc2cn(CC(O)Cn3cc(C=C4C(=O)NC(=O)NC4=O)c4ccccc43)c3ccccc23)C(=O)N1 | 101% |

Request: // returns reported growth at 10 µM for input COc1cc(/C=C2\C(=O)Nc3ccccc32)cc(OC)c1O
Result: 37.7%

Request: Given CC1=NN(c2cccc(Cl)c2)C(=O)/C1=C\c1cn(CC(O)Cn2cc(/C=C3\C(=O)N(c4cccc(Cl)c4)N=C3C)c3ccccc32)c2ccccc12 , state its recorded growth at 10 µM.
Result: 98.8%

###

assay: Cytotoxicity against human HCT15 cells assessed as cell growth at 10^-5 M after 48 hrs by sulforhodamine B assay; assay type: functional; settings: HCT-15, 48 h, read-out: Activity
READOUT TYPE: growth at 10 µM (%)
Express it in %; write the number only.

| COMPOUND | UNIT ANNOTATION | growth at 10 µM |
| --- | --- | --- |
| CC1=NN(c2cccc(Cl)c2)C(=O)/C1=C\c1cn(CC(O)Cn2cc(/C=C3\C(=O)N(c4cccc(Cl)c4)N=C3C)c3ccccc32)c2ccccc12 | % | 106 |
| CN1C(=O)C(=Cc2cn(CC(O)Cn3cc(C=C4C(=O)N(C)C(=O)N(C)C4=O)c4ccccc43)c3ccccc23)C(=O)N(C)C1=O | % | 105 |
| O=C1NC(=O)C(=Cc2cn(CC(O)Cn3cc(C=C4C(=O)NC(=O)NC4=O)c4ccccc43)c3ccccc23)C(=O)N1 | % | 103 |

Request: Using the record for COc1cc(/C=C2\C(=O)Nc3ccccc32)cc(OC)c1O , report its growth at 10 µM.
Result: 61.6

Request: Could you tell me which growth at 10 µM is on file for O=C1Nc2ccccc2/C1=C/c1cn(CC(O)Cn2cc(/C=C3\C(=O)Nc4ccccc43)c3ccccc32)c2ccccc12 (stereo not given) ?
Result: -69.8
